- Target Of Assay: MMP-2 (Homo sapiens, UniProt P08253)
- Construct: made in house; provided by Dr. Gregory Goldberg, Washington University
- Sequence (P08253 110-660): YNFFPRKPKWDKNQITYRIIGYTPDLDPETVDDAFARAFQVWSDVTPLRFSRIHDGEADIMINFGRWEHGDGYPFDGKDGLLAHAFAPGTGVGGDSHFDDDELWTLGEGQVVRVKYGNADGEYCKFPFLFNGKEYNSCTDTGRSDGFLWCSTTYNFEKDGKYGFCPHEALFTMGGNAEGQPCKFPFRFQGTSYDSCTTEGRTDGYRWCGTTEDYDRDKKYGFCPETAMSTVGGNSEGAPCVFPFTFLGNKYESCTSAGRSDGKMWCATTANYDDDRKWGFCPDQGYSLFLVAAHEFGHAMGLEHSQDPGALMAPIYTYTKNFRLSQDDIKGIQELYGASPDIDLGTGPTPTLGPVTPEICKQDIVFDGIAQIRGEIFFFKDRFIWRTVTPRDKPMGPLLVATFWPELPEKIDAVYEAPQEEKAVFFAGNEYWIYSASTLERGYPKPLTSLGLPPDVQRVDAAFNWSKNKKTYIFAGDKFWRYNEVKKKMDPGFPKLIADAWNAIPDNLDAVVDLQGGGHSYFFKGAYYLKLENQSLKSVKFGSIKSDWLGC
- Assay Overview: biochemical
- Cond: recombinant human MMP-2, MCA peptide substrate 4 μM, pH 7.5, room temperature; read-out: MMP-2 IC50
- Experimental: The compounds prepared in the manner described in the Examples above were assayed for activity by an in vitro assay. […] Briefly, 4-aminophenylmercuric acetate (APMA) or trypsin-activated MMPs were incubated with various concentrations of the inhibitor compound at room temperature for 5 minutes. […] Inhibition was measured as a reduction in fluorescent intensity as a function of inhibitor concentration, using a Perkin Elmer L550 plate reader. The IC50 values were calculated from those values. […]
Endpoint: pIC50
Scale note: pIC50 = -log10(concentration in M).

Worked examples follow.
>>> test_value("COc1ccc(C(=O)C2CCN(c3ccc(S(=O)(=O)C4(C(=O)NO)CCOCC4)cc3)CC2)cc1 [Example 80]")
6.25
>>> test_value("O=C(c1ccc(C(F)(F)F)c(F)c1)C1CCN(c2ccc(S(=O)(=O)C3(C(=O)NO)CCOCC3)cc2)CC1")
6.57
>>> test_value("COc1ccccc1C(=O)C1CCN(c2ccc(S(=O)(=O)C3(C(=O)NO)CCOCC3)cc2)CC1")
5.85
>>> test_value("O=C(NO)C1(S(=O)(=O)c2ccc(Oc3ccc(OC(F)(F)F)cc3)cc2)CCN(c2cccnc2)CC1")
10.00
>>> test_value("Cc1ccc(C(=O)C2CCN(c3ccc(S(=O)(=O)C4(C(=O)NO)CCN(C5CC5)CC4)cc3)CC2)cc1C")
6.15
>>> test_value("COc1ccc(C(=O)C2CCN(c3ccc(S(=O)(=O)C4(C(=O)NO)CCN(C(=O)OCc5ccccc5)CC4)cc3)CC2)cc1")
5.82
>>> test_value("O=C(NO)C1(S(=O)(=O)c2ccc(N3CCC(SC4CCCCC4)CC3)cc2)CCOCC1")
7.22
>>> test_value("O=C(NO)C1(S(=O)(=O)c2ccc(N3CCC(Sc4nc5ccccc5o4)CC3)cc2)CCN(C2CC2)CC1")
6.59

Moving on to the next compound.
Entry CC(C)(C)c1ccc(C(=O)C2CCN(c3ccc(S(=O)(=O)C4(C(=O)NO)CCOCC4)cc3)CC2)cc1 has what pIC50?
5.43
